CC50 at 24 h values by entry
assayDetails: Cytotoxicity assay, THP1
Assay type: cell-based
runConditions: human, THP1 cells, viability dye, flow cytometry
endpointName: CC50 at 24 h

# compound, reportedValue
records = [
    ("CC(=O)N(c1cc(C(=O)O)cc2[nH]ccc12)[C@@H]1O[C@H](CO)[C@@H](S[C@@H]2O[C@H](CO)[C@H](O)[C@H](n3cc(-c4cccc(F)c4)nn3)[C@H]2O)[C@H](O)[C@H]1O", "> 300 µM"),
    ("OC[C@H]1O[C@@H](S[C@@H]2O[C@H](CO)[C@H](O)[C@H](n3cc(-c4cccc(F)c4)nn3)[C@H]2O)[C@H](O)[C@@H](n2cc(-c3cccc(F)c3)nn2)[C@H]1O [GB0139, reference compound]", "> 300 µM"),
]

Reference source: paper PMC12670426
